test: S. cerevisiae RM11-1a growth modifiers, primary screen, strain RM11-1a, OD600, basal, 24 h (AID 1177); settings: OD600, 24 h, higher = more signal, called active from +8 up or from −8 down;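 further: cultures grown under basal conditions with no added stressor; test concentration not given here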
MEASUREMENT LABEL: z-score
I only need the number, thanks.

COMPOUND	NUMBER
O=C1O[C@@H](c2ccccc2)[C@@H](c2ccccc2)N2[C@@H](c3ccc(O)cc3)[C@]3(C(=O)Nc4ccc(C#CC5=CCCCC5)cc43)[C@@H](C(=O)O)[C@H]12	-2.61
O=C1C2C=CC(C(O)c3ccc(F)cc3)N(Nc3ccccc3)C2C(=O)N1c1ccccc1 (centres undefined)	0.723
CCOC(=O)[C@H]1C[C@H]2O[C@@]23C[C@H]1C(=O)N1CCCC1[C@@H]3O[Si](C)(C)C(C)(C)C (some centres undefined)	-0.521
COC(=O)[C@]1(Cc2ccccc2N=[N+]=[N-])N=C(c2ccc(OCCCO)cc2)O[C@@H]1c1ccccc1N=[N+]=[N-]	-0.0599

Problem: What does the record list as z-score for Cc1ccc(S[C@]2(C(=O)O)CC(=O)N(C3Cc4ccccc4C3)[C@@H]2c2ccc(CO)cc2I)cc1 ?
Solution: -0.219

Problem: Given C[N+](C)(C)CCCCCCNC(=O)[C@H]1C[C@H]2C(=O)N3CCC[C@H]3C(=O)N2[C@H]1c1ccc(O)cc1 , state its recorded z-score.
Solution: -0.201

Problem: Give the measured z-score of CCCCCCc1nc(CCCc2cc3c(c(CCCCCC)n2)[Si](C(C)C)(C(C)C)OC3)cc2c1[Si](C(C)C)(C(C)C)OC2 .
Solution: 0.539

Problem: What value of z-score has been recorded for this entry: COc1ccc([Si](C)(C)[C@@H]2[C@@H](CC(=O)N3CCC[C@H]3CO)O[C@]3(C(=O)N(C)c4c(Br)cc(C)cc43)[C@H]2C)cc1
Solution: -1

Problem: What value of measured z-score is listed for COC(=O)C1=CC(CCCO)=CC(C2CC2)N(Cc2sc3ccccc3c2Cl)C=C1C(=O)OC (centres undefined) ?
Solution: 1.61

Problem: For the compound C[C@H]1NC(=O)[C@H](Cc2ccccc2)NC(=O)[C@@]23C(=O)N[C@@H](Cc4ccccc4)C2[C@H](C)[C@@]2(C)O[C@H]2C3/C=C/C/C=C\CNC1=O (some centres undefined) , what z-score is on record?
Solution: 1.16

Problem: Name the recorded z-score for CCN(CC)c1ccc(N2CC=CC34O[C@@H]5/C=C\CCCOC(=O)C5[C@H]3C(=O)N(C(CO)C(C)C)[C@@H]4C2=O)cc1 (some centres undefined) .
Solution: 0.831

Problem: Entry under review: CCCCCN1CC=CC23O[C@@H]4/C=C\CCCOC(=O)C4[C@H]2C(=O)N(CCCCCCO)[C@@H]3C1=O (some centres undefined) . Reported z-score?
Solution: -3.12

Problem: // lookup z-score for [N-]=[N+]=NCc1ccccc1[C@@H]1OC(c2ccc(OCCCO)cc2)=N[C@]1(Cc1ccccc1N=[N+]=[N-])C(=O)NCc1ccccc1
Solution: 1.27

Problem: I'd like to know its z-score. The compound in question is O=C1O[C@@H](c2ccccc2)[C@@H](c2ccccc2)N2[C@@H](c3ccc(OCCO)cc3)[C@]3(C(=O)Nc4ccccc43)[C@@H](C(=O)Nc3nc4ccccc4s3)[C@H]12
Solution: 1.97

Problem: May I ask what z-score has been recorded for COC(=O)[C@@]1(Cc2ccc(F)cc2)[C@H]2c3cc(C(=O)N(C)C)n(CCc4ccccn4)c3C[C@H]2CN1C(=O)c1ccccc1 ?
Solution: -0.182

Problem: # z-score lookup, item O=c1cccc(C=Cc2ccccc2)o1
Solution: -0.0064

Problem: # input compound: Cc1ccc(S[C@]2(C(=O)NCCN3CCOCC3)CC(=O)N(Cc3cc(C(F)(F)F)cc(C(F)(F)F)c3)[C@@H]2c2ccc(CO)cc2I)cc1 ; wanted: its z-score
Solution: -2.09

Problem: What value of z-score has been reported for the following compound? COCCOC(=O)N1C(=O)[C@@]2(c3cc(C#CC4=CCCCC4)ccc31)[C@H](C(=O)NC[C@H](O)c1ccccc1)[C@H]1C(=O)O[C@H](c3ccccc3)[C@H](c3ccccc3)N1[C@@H]2c1ccc(O)cc1
Solution: 1.55

Problem: # lookup: z-score of COCC(=C=CC[C@@H](O)c1ccc(CO)o1)CCO
Solution: -3.85
